MEASURED_ON: system Xc^− (Homo sapiens, UniProt Q9UPY5)
Sequence (Q9UPY5 1-501): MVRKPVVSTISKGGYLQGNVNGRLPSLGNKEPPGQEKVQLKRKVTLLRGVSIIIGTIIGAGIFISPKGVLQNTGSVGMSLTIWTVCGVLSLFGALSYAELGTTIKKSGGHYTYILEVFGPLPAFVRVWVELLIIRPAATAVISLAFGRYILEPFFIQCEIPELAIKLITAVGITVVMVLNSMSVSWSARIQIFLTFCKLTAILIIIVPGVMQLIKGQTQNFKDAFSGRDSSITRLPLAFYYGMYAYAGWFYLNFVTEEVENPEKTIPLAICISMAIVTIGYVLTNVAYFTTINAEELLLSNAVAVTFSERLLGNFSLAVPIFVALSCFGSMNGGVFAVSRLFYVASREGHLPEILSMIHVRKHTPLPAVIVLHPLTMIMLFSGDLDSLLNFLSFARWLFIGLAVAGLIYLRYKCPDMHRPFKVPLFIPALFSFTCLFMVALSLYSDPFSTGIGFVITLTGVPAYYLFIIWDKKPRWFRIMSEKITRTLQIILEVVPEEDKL
Sequence (P08195 1-529 partner): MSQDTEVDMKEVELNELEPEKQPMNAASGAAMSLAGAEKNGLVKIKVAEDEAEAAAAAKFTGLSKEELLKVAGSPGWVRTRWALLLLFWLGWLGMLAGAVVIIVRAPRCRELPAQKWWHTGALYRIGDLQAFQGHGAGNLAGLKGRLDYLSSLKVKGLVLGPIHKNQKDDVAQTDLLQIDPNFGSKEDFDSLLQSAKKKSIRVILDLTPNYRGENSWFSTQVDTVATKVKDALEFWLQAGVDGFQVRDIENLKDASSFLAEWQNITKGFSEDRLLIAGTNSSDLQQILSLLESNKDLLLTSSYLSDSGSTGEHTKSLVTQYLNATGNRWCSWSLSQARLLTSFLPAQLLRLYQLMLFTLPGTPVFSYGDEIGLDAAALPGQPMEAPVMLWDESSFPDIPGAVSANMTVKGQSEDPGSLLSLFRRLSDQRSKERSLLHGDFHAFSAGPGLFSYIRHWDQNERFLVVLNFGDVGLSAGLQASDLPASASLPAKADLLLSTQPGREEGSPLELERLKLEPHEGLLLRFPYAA
MEASUREMENT_PROTOCOL: [^14C]L-Cystine uptake assay
Type: cell-based
Design: endogenous in cells; host or cells: H4 cells
TEST_SETTINGS: H4 cells, sodium-free HEPES buffer, 0.5 μM L-[14C]Cystine and 4.5 μM L-Cystine, 1 hour at 37° C.; read-out: pIC50 [^14C] L-Cystine uptake assay (converted)
METRIC_NAME: IC50

Guide cases for IC50, answers given:
{"COMPOUND": "Cc1cc2c(c(F)n1)-c1cccnc1[C@@H](CO)C(=O)N2CC(=O)Nc1ccc(C(F)(F)F)cc1 (single isomer, unassigned)", "VALUE_MEASURED": "< 15.8 nM"}
{"COMPOUND": "CC1C(=O)N(CC(=O)Nc2ccc(C(F)F)cc2)c2cc(N3CCC(F)(F)C3)nc(F)c2-c2cccnc21 (single isomer, unassigned)", "VALUE_MEASURED": "15.8 to 39.8 nM"}
{"COMPOUND": "COCC1C(=O)N(CC(=O)Nc2ccc(C(F)(F)F)cc2)c2cc(C)nc(Cl)c2-c2ccccc21 (stereo not shown)", "VALUE_MEASURED": "39.8 to 100 nM"}
{"COMPOUND": "Cc1cc2c(c(F)n1)-c1cncnc1C(C)C(=O)N2CC(=O)Nc1ccc(C(F)F)cc1 (single isomer, unassigned)", "VALUE_MEASURED": "100 to 501 nM"}
{"COMPOUND": "CC1C(=O)N(CC(=O)Nc2ccc(Cl)c(F)c2)c2cc(Cl)cc(F)c2-c2ccnnc21 (single isomer, unassigned)", "VALUE_MEASURED": "< 15.8 nM"}
{"COMPOUND": "Cc1cc2c(c(F)n1)-c1cccnc1C(O)C(=O)N2CC(=O)Nc1ccc(C(F)(F)F)cc1 (stereo not shown)", "VALUE_MEASURED": "39.8 to 100 nM"}

Read the next record carefully.
Name the recorded IC50 of the compound listed here: Cc1cc2c(cn1)-c1cc(F)cnc1C(C)C(=O)N2CC(=O)Nc1ccc(C(F)F)cc1 (single isomer, unassigned)
15.8 to 39.8 nM

###

MEASURED_ON: system Xc^− (Homo sapiens, UniProt Q9UPY5)
MEASUREMENT_PROTOCOL: Cystine-induced glutamate release assay
Assay type: cell-based
Design: endogenous in cells; host or cells: H4 cells
TEST_SETTINGS: H4 cells, sodium-free HEPES buffer, 50 μM L-Cystine, 2 hours, Amplex Red glutamate readout; read-out: pIC50 Cystine-induced glutamate release assay (converted)
Reported IC50 values for a set of compounds

{"COMPOUND": "Cc1cc2c(c(=O)n1C1CC1)-c1cccnc1C(C)C(=O)N2CC(=O)Nc1ccc(Cl)c(F)c1 (stereo not shown)", "IC50": "39.8 to 100 nM"}

Name the recorded IC50 of the compound listed here: COc1nc(C)cc2c1-c1cccnc1C(O)C(=O)N2CC(=O)Nc1ccc(C(F)(F)F)cc1 (stereo not shown)
15.8 to 39.8 nM

Name the recorded IC50 of the compound listed here: COc1cc(F)c2c(c1)N(CC(=O)Nc1ccc(Cl)c(F)c1)C(=O)C(C)c1ncncc1-2 (single isomer, unassigned)
< 15.8 nM

Name the recorded IC50 of the compound listed here: Cc1cc2c(cn1)-c1cccnc1C(C)C(=O)N2CC(=O)Nc1ccc(F)c(Cl)c1 (single isomer, unassigned)
39.8 to 100 nM

Name the recorded IC50 of the compound listed here: CC1C(=O)N(CC(=O)Nc2ccc(Cl)c(F)c2)c2cc(CO)c(=O)n(C)c2-c2ccccc21 (stereo not shown)
15.8 to 39.8 nM

Name the recorded IC50 of the compound listed here: Cc1cc2c(c(Cl)n1)-c1cc(F)cnc1C(C)C(=O)N2CC(=O)Nc1ccc(C(F)(F)F)cn1 (single isomer, unassigned)
15.8 to 39.8 nM

Name the recorded IC50 of the compound listed here: Cc1cc2c(c(F)n1)-c1cccnc1[C@@H](C)C(=O)N2CC(=O)Nc1ccc(C(F)(F)F)c(C)c1
15.8 to 39.8 nM

###

MEASURED_ON: system Xc^− (Homo sapiens, UniProt Q9UPY5)
MEASUREMENT_PROTOCOL: Cystine-induced glutamate release assay
Type: cell-based
Set-up: endogenous in cells; host or cells: H4 cells
TEST_SETTINGS: H4 cells, sodium-free HEPES buffer, 50 μM L-Cystine, 2 hours, Amplex Red glutamate readout; read-out: pIC50 Cystine-induced glutamate release assay (converted)
METRIC_NAME: IC50

Guide cases for IC50, answers given:
{"COMPOUND": "COc1cc(F)c2c(c1)N(CC(=O)Nc1ccc(Cl)c(F)c1)C(=O)C(C)c1ncccc1-2 (single isomer, unassigned) [#316]", "MEASURED_ON": "system Xc^− (Homo sapiens, UniProt Q9UPY5)", "VALUE_MEASURED": "15.8 to 39.8 nM"}
{"COMPOUND": "C[C@H]1C(=O)N(CC(=O)Nc2ccc(C(F)F)cc2)c2cc(N3CC4C(C3)C4(F)F)nc(F)c2-c2cccnc21 (single isomer, unassigned) [#289]", "MEASURED_ON": "system Xc^− (Homo sapiens, UniProt Q9UPY5)", "VALUE_MEASURED": "15.8 to 39.8 nM"}
{"COMPOUND": "Cc1cc2c(c(F)n1)-c1cccnc1C(CO)C(=O)N2CC(=O)Nc1ccc(C(F)(F)F)cc1 (stereo not drawn) [#152]", "MEASURED_ON": "system Xc^− (Homo sapiens, UniProt Q9UPY5)", "VALUE_MEASURED": "39.8 to 100 nM"}

Name the recorded IC50 of the compound listed here: Cc1cc2c(cc1C)N(CC(=O)Nc1ccc(Cl)c(F)c1)C(=O)Cc1ncccc1-2 [#3]
100 to 501 nM

Name the recorded IC50 of the compound listed here: Cc1cc2c(cn1)-c1ccc(C)nc1CC(=O)N2CC(=O)Nc1ccc(C(F)(F)F)cc1 [#71]
100 to 501 nM

###

MEASURED_ON: system Xc^− (Homo sapiens, UniProt Q9UPY5)
MEASUREMENT_PROTOCOL: Cystine-induced glutamate release assay
Assay type: cell-based
Design: endogenous in cells; host or cells: H4 cells
TEST_SETTINGS: H4 cells, sodium-free HEPES buffer, 50 μM L-Cystine, 2 hours, Amplex Red glutamate readout; read-out: pIC50 Cystine-induced glutamate release assay (converted)
METRIC_NAME: IC50

Name the recorded IC50 of the compound listed here: COc1cc2c(c(C)n1)-c1cccnc1C(C)C(=O)N2CC(=O)Nc1ccc(Cl)c(F)c1 (single isomer, unassigned) [#300]
< 15.8 nM

Name the recorded IC50 of the compound listed here: O=C(CN1C(=O)Cc2cccnc2-c2cnc(Cl)cc21)Nc1ccc(C(F)(F)F)cc1 [#7]
100 to 501 nM

Name the recorded IC50 of the compound listed here: Cc1cc2c(c(F)n1)-c1cncnc1[C@@H](C)C(=O)N2CC(=O)Nc1ccc(C(F)(F)F)cc1 (single isomer, unassigned) [#202]
39.8 to 100 nM

Name the recorded IC50 of the compound listed here: CC1C(=O)N(CC(=O)Nc2ccc(C(F)F)cc2)c2cc(C(F)F)c(=O)n(C)c2-c2ccccc21 (single isomer, unassigned) [#357]
15.8 to 39.8 nM

Name the recorded IC50 of the compound listed here: CC1C(=O)N(CC(=O)Nc2ccc(Cl)c(F)c2)c2ccn(C)c(=O)c2-c2ccc(F)cc21 (single isomer, unassigned) [#364]
15.8 to 39.8 nM

Name the recorded IC50 of the compound listed here: COCCOc1nc(C)cc2c1-c1cccnc1C(C)C(=O)N2CC(=O)Nc1ccc(C(F)(F)F)cc1 (single isomer, unassigned) [#162]
15.8 to 39.8 nM

Name the recorded IC50 of the compound listed here: Cc1cc2c(c(F)n1)-c1ccc(Cl)cc1CC(=O)N2CC(=O)Nc1ccc(C(F)(F)F)cc1 [#85]
39.8 to 100 nM

Name the recorded IC50 of the compound listed here: Cc1cc2c(c(C)n1)-c1ccc(Cl)cc1CC(=O)N2CC(=O)Nc1ccc(C(F)(F)F)cc1 [#62]
15.8 to 39.8 nM

Name the recorded IC50 of the compound listed here: COc1nc(C)cc2c1-c1cccnc1CC(=O)N2CC(=O)Nc1ccc(C#N)cc1 [#77]
39.8 to 100 nM

Name the recorded IC50 of the compound listed here: Cc1cc2c(c(F)n1)-c1ncccc1CC(=O)N2CC(=O)Nc1ccc(C(F)(F)F)cc1 [#38]
100 to 501 nM

Name the recorded IC50 of the compound listed here: Cc1cc2c(c(C)n1)-c1cccnc1CC(=O)N2CC(=O)Nc1ccc(C2CC2)cc1 [#58]
39.8 to 100 nM

Name the recorded IC50 of the compound listed here: Cc1cc2c(c(F)n1)-c1ncccc1CC(=O)N2CC(=O)Nc1ccc(Cl)c(F)c1 [#41]
100 to 501 nM

Name the recorded IC50 of the compound listed here: CC1C(=O)N(CC(=O)Nc2ccc(C(F)F)cc2)c2cc(N3CC(C)(O)C3)nc(F)c2-c2cccnc21 (single isomer, unassigned) [#275]
< 15.8 nM

Name the recorded IC50 of the compound listed here: O=C(CN1C(=O)C(CO)c2ncccc2-c2c(F)cc(F)cc21)Nc1ccc(Cl)c(F)c1 (single isomer, unassigned) [#381]
39.8 to 100 nM

Name the recorded IC50 of the compound listed here: Cc1cc2c(c(C(F)F)n1)-c1cccnc1C(C)C(=O)N2CC(=O)Nc1ccc(Cl)c(F)c1 (single isomer, unassigned) [#302]
39.8 to 100 nM
